// each record: one item and its pIC50 for SARS-CoV-2 Main Protease (SARS-CoV-2) (UniProt P0DTD1)
Answers are plain numbers, as −log10 of the molar value.

O=C(Nn1nnc2ccccc21)C(Cc1cccc(Cl)c1)c1ccc(N2CCCCC2=O)cc1 (stereo unspecified) = 4.09
NS(=O)(=O)CCc1ccccc1CN1CCN(C(=O)CCl)CC1 = 6.08
CCCCOc1ccc(Cl)cc1CC(=O)Nc1cnccc1C = 4.80
O=C(CCl)N1CCN(S(=O)(=O)c2cccc(F)c2)CC1 = 5.69
O=C(Cc1cccc(Cl)c1)Nc1n[nH]c2ccc(F)cc12 = 4.05

Shift focus to the following entry.
**Query** Give its pIC50 value. Item: COc1cccc2[nH]c(=O)cc(C(=O)N3CCN(c4cccc(Cl)c4)CC3)c12
**Result** 5.73

Where do these numbers come from? They come from the COVID Moonshot data (paper PMC11187573).
